CD28 scFv signal values by entry
Test System: T1, anti-CD28 scFv (VH-linker 1-VL) (biotinylated (site not stated))
T1 construct: Captured as biotinylated scFv on neutravidin coated plates in the phage ELISA
T1 sequence (scFv, as listed by the source): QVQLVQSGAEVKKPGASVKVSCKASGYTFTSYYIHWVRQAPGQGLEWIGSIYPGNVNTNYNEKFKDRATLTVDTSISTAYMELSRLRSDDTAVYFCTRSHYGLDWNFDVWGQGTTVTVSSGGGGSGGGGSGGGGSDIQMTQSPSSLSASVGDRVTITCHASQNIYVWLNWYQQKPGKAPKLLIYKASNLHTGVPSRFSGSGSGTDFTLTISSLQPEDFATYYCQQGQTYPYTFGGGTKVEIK
Assay Notes: phage ELISA; biotinylated scFv on neutravidin plate; anti-M13-HRP;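 further: crude clonal phage supernatant added to wells pre-incubated with soluble CD28 protein or only blocking buffer, then washed, bound phage read out with an HRP-linked anti-M13 antibody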
I only need the number, thanks.

MDWCPRDQWHNCFN (on phage (pIII fusion)) [Phage-222 clonal phage peptide]	0.2
MDWCPRFMWAECFN (on phage (pIII fusion)) [Phage-247 clonal phage peptide]	2.6

Now look at this one.
Task: Value lookup for CD28 scFv signal; key = MDWCPPYLWSECFA (on phage (pIII fusion)) [Phage-238 clonal phage peptide]
Output: 2.6
